Taken from ChEMBL document CHEMBL5523727.

Assay Method Text: Volume of distribution at steady state in rat at 2 mg/kg, iv by LC-MS/MS analysis
Type: ADME, organism-based
Condition Set: in vivo, read-out: Vdss

{"columns": ["Compound", "Unit Annotation", "Vd"],
 "data": [
  ["CC(C)(O)c1cc2nc([C@H]3CC[C@H](CN4CC5(CC(CCNc6cccc7c6C(=O)N(C6CCC(=O)NC6=O)C7=O)C5)C4)CC3)sc2cc1NC(=O)c1cccc(C(F)(F)F)n1 (stereo partly drawn) [ZOMIRADOMIDE]", "L/kg", 15],
  ["CC(C)(O)c1cc2nn([C@H]3CC[C@H](CN4CCC(O[C@H]5C[C@H](Nc6cccc7c6C(=O)N(C6CCC(=O)NC6=O)C7=O)C5)CC4)CC3)cc2cc1NC(=O)c1cccc(C(F)(F)F)n1 (stereo partly drawn)", "L/kg", 8.9],
  ["COc1cc2nc([C@H]3CC[C@H](CN4CC5(CC(CCNc6cccc7c6C(=O)N(C6CCC(=O)NC6=O)C7=O)C5)C4)CC3)oc2cc1NC(=O)c1cccc(C(F)(F)F)n1 (stereo partly drawn)", "L/kg", 9.6]
]}
